# target_entity: peptide-binding domain of GRP78 (GRP78-PBD, amino acids 421-639) (UniProt P11021)
# Sequence (P11021 421-639 limits assumed, form in doubt): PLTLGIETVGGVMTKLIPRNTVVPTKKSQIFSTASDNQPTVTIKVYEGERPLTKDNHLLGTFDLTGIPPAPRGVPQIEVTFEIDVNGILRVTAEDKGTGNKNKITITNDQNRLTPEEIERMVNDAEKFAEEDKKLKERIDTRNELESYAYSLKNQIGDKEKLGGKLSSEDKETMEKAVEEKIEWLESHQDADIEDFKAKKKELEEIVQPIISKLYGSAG
# assay_details: SPR (BIACORE T200), N-biotin peptide on streptavidin CM5 chip, GRP78-PBD analyte
Where no end group is shown, it is not given here. biotin = biotin label attached through an aminohexanoic acid linker; Ahx = NCCCCCC(=O)O
experimental_readout: koff (s⁻¹)

(P) {biotin-Ahx}-GGGGSRPFLFPFLFYRPFLFPFLFY [F5P13-TR-CTP, N-terminally extended with GGGGS and N-terminally biotin-labeled]
(Q) {biotin-Ahx}-GGGGSRLLDTNRPFLFY [P13-CTP, N-terminally extended with GGGGS and N-terminally biotin-labeled]
Which entry has a larger number for koff, P or Q ? Please reply using the label of the selected record.
Q
(Q: 0.0034 s⁻¹, P: 0.0012 s⁻¹)

(I) {biotin-Ahx}-GGGGSRPFLPFLPYRPFLPFLPY [F5P6-TR-CTP, N-terminally extended with GGGGS and N-terminally biotin-labeled]
(II) {biotin-Ahx}-GGGGSRPFLFPFLFY [F4P13-TR-CTP, N-terminally extended with GGGGS and N-terminally biotin-labeled]
(III) {biotin-Ahx}-GGGGSRPFLPFLPY [F4P6-TR-CTP, N-terminally extended with GGGGS and N-terminally biotin-labeled]
Order the items by recorded koff; the first position goes to the largest value. Arrange the labels as the request states and list them.
III, II, I
(III: 0.0028 s⁻¹, II: 0.0017 s⁻¹, I: 0.00091 s⁻¹)

The reported measurements were obtained from patent US20210253636A1.
